The values you see were collected from a melting point compilation (Tetko et al.; mined from patent text by program, amines drawn as free bases though some values may be those of a salt).

Collected melting point values appear next to each entry.
measured-endpoint: melting point

In [3]: df
Out[3]:
                                    molecule  value_measured
 0  O=C(O)C1Cc2c(ncn2CCc2ccccc2)CN1C(=O)Cc1ccccc1 (configuration not stated)   215 to 220 °C
 1  Fc1cccc(F)c1-c1cnnc(-c2ccc(-c3ccc(OC(F)(F)F)cc3)cc2)n1   159 to 160 °C
 2  Cc1ccccc1N(CC(=O)N(C)c1ccccc1)C(=O)CN1C(=O)c2ccccc2C1=O          120 °C
 3                 Cc1c(Cl)nc2c(C=O)cnn2c1Cl   137 to 139 °C
 4          CC(=O)c1ccc(NC(=O)NN2CC=CCC2)cc1   142 to 143 °C
 5       CC(C)c1nc2cc(NC(=O)OC(C)(C)C)ccn2n1   215 to 218 °C
 6  N#CC(N)=C(C#N)N=Cc1cnn(-c2c(F)cc(F)cc2F)n1   213 to 215 °C
 7  O=C(O)COc1cccc(COC(=O)N(c2ccccc2)c2ccccc2)c1Cl   182 to 183 °C
 8                    COC(=O)c1cc(=O)c(O)co1   184 to 186 °C
 9                  COC(=O)c1ccc2oc(Cl)nc2c1   104 to 106 °C
10           Cc1cc(C)n(Cc2ccc(Cl)cc2Cl)c1C=O     88 to 89 °C
11  CCCCC1(C(=O)N[C@@H](Cc2ccc(NC(=O)c3c(Cl)cccc3Cl)cc2)C(=O)OC)CCCC1   193 to 196 °C
12  COc1ccc(O)c(OC)c1-c1ccc(C[C@H](NC(=O)c2c(Cl)cccc2Cl)C(=O)O)cc1   164 to 165 °C
13                 Cc1ccc2c(n1)sc1c(O)cnnc12        > 300 °C
14  Cn1cc(C2=C(c3ccncc3)C(=O)OC2=O)c2ccccc21   217 to 219 °C
15  CNC(=O)OC1CC2(CCN(CCCC(=O)c3ccc(F)cc3)C2)c2ccccc21 (configuration not stated)   167 to 169 °C
16   Fc1ccc2c(c1)nc(/C=C/c1ccoc1)n2-c1ccccn1   168 to 170 °C
17  CC1CCC2(C)C(=CCC3C4CC(O)C(=O)C4(C)CCC32)C1 (configuration not stated)   166 to 168 °C
18                   Nc1ccccc1-c1nc2cccnc2o1   142 to 144 °C
19  Cc1cc(CNC(=O)c2sc(N3C[C@@H](C)N(Cc4ccc(F)cc4)C3=O)nc2C)[nH]n1   215 to 216 °C
20        O=C(NCCc1cccs1)c1ccc(-c2ccccc2)cc1   164 to 166 °C
21    COC(=O)c1cc(Cl)c(Oc2ccc(OC)cc2)c(Cl)c1     82 to 85 °C
22  CC(=O)OC1CSC(Oc2cncc(-c3c(C)n[nH]c3C)c2)C(OC(C)=O)C1OC(C)=O (configuration not stated)           95 °C
23     COc1c(-c2ccccc2)csc1-c1cnn2c(O)ccnc12   234 to 236 °C
24  CCCCCC[C@H](C)COC(=O)c1ccc(-c2ccc(O)cc2)cc1           89 °C
25          O=C(Cl)N1Cc2ccccc2Oc2ccc(Cl)cc21   100 to 102 °C
26  CN1C(=O)c2cc(Nc3ccccc3)c(Nc3ccccc3)cc2C1=O   195 to 196 °C
27  O=C(NNS(=O)(=O)c1cccc(F)c1)c1ccc2oc3ccccc3c2c1          223 °C
28  CCOC(=O)C(=O)c1cn(Cc2ccc(C(C)(C)C)cc2)c2cc(-c3ccc(OC(F)(F)F)cc3)ccc12   146 to 147 °C
29  OCCCC1=NN(c2nccs2)C(O)(c2ccc(Cl)cc2)C1 (configuration not stated)   146 to 147 °C
30  Cc1nc(N2CCc3ccccc3CC2)c(C#N)c(=O)n1NC(C)C   142 to 146 °C
31  Cc1c(Cl)ccc2c(=O)n(CCCN3CC=C(c4ccc(Cl)cc4)CC3)c(=O)[nH]c12   208 to 210 °C
32  CC(=O)OCCOC(=O)C1=C(C)NC(C)=C(C(=O)CS(=O)(=O)NC(C)C)C1c1cccc([N+](=O)[O-])c1 (configuration not stated)   133 to 136 °C
33  CC1=C(C(=O)OC(C)(C)C)C(c2ccc(C)cc2C)C(C(=O)OC(C)(C)C)=C(C)N1   197 to 198 °C
34  O=c1oc(-c2cccc(S(=O)(=O)C(F)(F)F)c2)nc2ccccc12    96 to 102 °C
35  N#CC1CCCc2c(C(=O)O)cccc21 (configuration not stated)   177 to 179 °C
36  COc1cc2c(cc1C)CCN(C)C2C1(C2C=CCCC2)CCC1 (configuration not stated)   124 to 125 °C
37  ON=C1CCn2c(-c3ccc(Br)cc3)nc3c(Cl)ccc1c32        > 250 °C
38                    COc1cccc2ccc(CC#N)cc12     47 to 48 °C
39  CC(CO)Nc1ccc(-c2cccc(C(F)(F)F)c2)nn1 (configuration not stated)   143 to 144 °C
40  COc1ccc(-c2nc3c(o2)C(=O)c2ccccc2C3=O)cc1        > 260 °C
41                       COCCn1cc(C#N)c(N)n1   105 to 107 °C
